Assay target: recombinant human ACE2 (rhACE2) (Homo sapiens)
Sequence (Q9BYF1 18-740 limits assumed): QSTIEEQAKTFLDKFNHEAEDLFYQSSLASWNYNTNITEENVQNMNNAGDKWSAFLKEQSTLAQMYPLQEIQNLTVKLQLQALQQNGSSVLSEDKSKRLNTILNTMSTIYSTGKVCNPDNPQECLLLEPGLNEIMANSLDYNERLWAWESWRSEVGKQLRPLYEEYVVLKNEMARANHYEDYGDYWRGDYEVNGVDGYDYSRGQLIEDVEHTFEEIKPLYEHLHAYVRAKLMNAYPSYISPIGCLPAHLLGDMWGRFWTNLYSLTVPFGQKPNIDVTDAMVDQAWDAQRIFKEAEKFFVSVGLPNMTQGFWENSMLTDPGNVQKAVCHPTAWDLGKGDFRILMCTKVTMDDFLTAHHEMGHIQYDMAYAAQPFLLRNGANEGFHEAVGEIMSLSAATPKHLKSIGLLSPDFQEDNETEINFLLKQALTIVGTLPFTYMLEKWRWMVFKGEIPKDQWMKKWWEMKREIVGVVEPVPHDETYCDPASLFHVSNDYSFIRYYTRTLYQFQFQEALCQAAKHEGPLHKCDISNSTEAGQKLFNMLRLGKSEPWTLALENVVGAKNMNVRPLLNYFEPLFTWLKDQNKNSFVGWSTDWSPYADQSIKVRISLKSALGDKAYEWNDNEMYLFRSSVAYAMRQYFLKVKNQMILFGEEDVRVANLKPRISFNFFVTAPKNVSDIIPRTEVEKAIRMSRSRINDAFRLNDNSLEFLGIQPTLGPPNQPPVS
Experiment: Zinc inhibition of rhACE2 metabolism of Ang II to Ang 1–7
Recorded conditions: read-out: IC50 for inhibition of rhACE2 metabolism of Ang II to Ang 1–7; zinc 1 to 1000 μM, 100 μM Ang II, rhACE2 48.4 ng/ml (569 pM), 50 mM Hepes, 100 mM NaCl, pH 7.0, 30 min, 37°C; mean ± SEM, n=2
Endpoint label: IC50
Answer with the value and then the unit.

// query IC50 value for entry CC(=O)[O-].CC(=O)[O-].[Zn+2] [zinc, zinc acetate]
69.1 µM
